Quick reference: TGI of the listed items.
# Tested on: HCT-15 colon
# ASSAY OVERVIEW: NCI tumour cell line growth inhibition, 48 h
READOUT LABEL: TGI

INSERT INTO results (molecule, readout_label, observed) VALUES
  ('Cc1nn(CNc2ccc(F)c(Cl)c2)c(=S)n1/N=C/c1ccc(-c2ccc(Cl)cc2Cl)o1', 'TGI', '41.6 µM'),
  ('O=C(Cc1cc(O)ccc1O)NO', 'TGI', '> 100 µM'),
  ('OC1CC(O)O[C@H](c2ccccc2)C1 (stereo partly specified)', 'TGI', '> 100 µM'),
  ('O=c1[nH][nH]c(=O)n1Cc1ccccc1', 'TGI', '> 100 µM'),
  ('Nc1[nH]c(=O)nc2c1cnn2COCCO', 'TGI', '> 100 µM'),
  ('COc1cc2cc(C(=O)N3CC(CCl)c4ccc(NO)cc43)[nH]c2c(OC)c1OC (stereo unspecified)', 'TGI', '> 100 µM');
